target: Androgen receptor (Homo sapiens); assay: qHTS assay to identify small molecule agonists of the androgen receptor (AR) signaling pathway (AID 743036); conditions: HEK293 AR-UAS-bla GripTite, beta-lactamase FRET ratio, 16 h; series mostly up to 62.4 µM
Records with an inconclusive call do not appear. Activity calls are given as the source filed them. The call rests on the fitted dose curve; in most records, active means well fitted activation curve with a large enough effect in the signal ratio in the repeat runs, with a control signal flat (not every such curve was filed as active); inconclusive means weak or mixed curves, or effect the other way; inactive means no such curve, though single readings can be large or run the other way; the % refers to the signal ratio.
Outcome codes: active, inactive

C=CCN1CC[C@]23c4c5ccc(O)c4O[C@H]2[C@@H](O)C=C[C@H]3[C@H]1C5 :: inactive
Cc1ccccc1-n1c(CF)nc2ccc(N)cc2c1=O :: inactive
C[C@@H]1[C@@H]2Cc3ccc(O)cc3[C@@]1(C)CCN2CC1CC1 :: inactive
CCCC(=O)OC(C(Cl)(Cl)Cl)P(=O)(OC)OC (stereo unspecified) :: inactive
CC1(C)S[C@@H]2[C@H](N)C(=O)N2[C@H]1C(=O)O :: inactive
COC(=O)[C@H]1[C@@H](OC(=O)c2ccccc2)C[C@@H]2CC[C@H]1N2C :: inactive
NCC(O)c1cccc(O)c1 (stereo unspecified) :: inactive
CNC(C)CC1CCCCC1 (stereo unspecified) :: inactive
C[C@]12CC[C@H]3[C@@H](CCC4=C(Cl)C(=O)CC[C@@]43C)[C@@H]1CC[C@@H]2O :: active
CCCCCN(C)CCC(O)(P(=O)(O)O)P(=O)(O)O :: inactive
O=c1ccc2cc(O[C@@H]3O[C@H](CO)[C@@H](O)[C@H](O)[C@H]3O)c(O)cc2o1 :: active
CCN(CC)C(=O)N[C@H]1C[C@@H]2c3cccc4[nH]cc(c34)C[C@H]2N(C)C1 :: inactive
C[C@@H](N)C(=O)c1ccccc1 :: inactive
COC(=O)[C@@H]1[C@H]2CC[C@@H](C[C@H]1OC(=O)c1ccccc1)N2C :: inactive
C[C@@H](Cc1ccccc1)N(C)C :: inactive
CN1CC[C@@]23CCCC[C@@H]2[C@@H]1Cc1ccc(O)cc13 :: inactive

This collection of values is drawn from PubChem BioAssay (Tox21).
